Tested on: COLO 320
PROCEDURE_SUMMARY: Cytotoxicity against human COLO 320 cells assessed as reduction in cell viability measured after 24 hrs by MTT assay
Format: functional, cell-based
DETAILS: COLO 320, 24 h
READOUT: pIC50
Reminder that pIC50 means the negative base-10 logarithm of the concentration expressed in mol/L.

GET /values?readout=pIC50&item= `CC(C)[C@@H](C)/C=C/[C@@H](C)[C@H]1CC[C@H]2C3=CC[C@H]4CC(=O)CC[C@]4(C)[C@H]3CC[C@]12C`
5.08
